assay: Cell Viability - LYMP2-013 (AID 970); settings: LYMP2-013 lymphoblastoid cells viability; series mostly up to 92.2 µM;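 also: cells exposed to compound for 24 h at 37 °C; nearly all actives have a fitted effect of over 55% in size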
Inconclusive results are not listed. Activity calls are given as the source filed them. Calls follow the shape of the dose curve; as a rule, active = well fitted cell-killing curve with a large enough effect; inconclusive = small, poorly fitted or top-dose-only effect; inactive = flat fitted curve, though single readings scatter.
Classes to choose from: active, inactive

Query: Identify the outcome logged in this assay for the compound shown: `CCCCC=O`
Result: inactive

Query: Short answer needed: outcome of this test for `Cc1ccccc1C#N` ?
Result: inactive

Query: Tell me the assay call for `C=Cc1ccc(C=C)cc1` please.
Result: inactive

Query: Can you look up the reported call for `CCNc1ccccc1` for me?
Result: inactive

Query: What outcome does the record of this test show for `CN(C)c1cccc(O)c1` ?
Result: inactive

Query: GET /call?item= `CCCCCCC(=O)O` returns the recorded outcome of this test.
Result: inactive

Query: Which result was noted for this compound in the test: `Cc1cccc(C(=O)O)c1[N+](=O)[O-]`
Result: inactive

Query: What did this assay record as the result for `Cc1ccc(Cl)cc1` ?
Result: inactive

Query: Recorded test call requested for `Cc1ccc(N(C)C)cc1`
Result: inactive

Query: State the result this test recorded for `Cc1cc(C(=O)O)ccc1[N+](=O)[O-]` .
Result: inactive

Query: For `C=Cc1ccccc1C=C` , what call appears in the results of this test?
Result: inactive

Query: Record request — test call for `CCOc1cc(OCC)c(C(C)=O)cc1OCC`
Result: inactive

Query: In this assay, the call recorded for `OCCO` was what?
Result: inactive

Query: Field: outcome | Entry: `O=C1OC(=O)c2c(Cl)c(Cl)c(Cl)c(Cl)c21`
Result: inactive

Query: Recorded test call requested for `CC(C)CO`
Result: inactive

Query: State the result this test recorded for `O=Cc1ccccc1Cl` .
Result: inactive

Query: For `O=Nc1ccc(NO)cc1` , which call appears in the assay record?
Result: active
